- study_target: T1, human ROR1 on the surface of tumor cells (human, UniProt Q01973 30-937)
- T1 construct: whole, on cells; also called ROR1 on the cell surface; tumor cell ROR1
- T1 sequence (Q01973 30-937): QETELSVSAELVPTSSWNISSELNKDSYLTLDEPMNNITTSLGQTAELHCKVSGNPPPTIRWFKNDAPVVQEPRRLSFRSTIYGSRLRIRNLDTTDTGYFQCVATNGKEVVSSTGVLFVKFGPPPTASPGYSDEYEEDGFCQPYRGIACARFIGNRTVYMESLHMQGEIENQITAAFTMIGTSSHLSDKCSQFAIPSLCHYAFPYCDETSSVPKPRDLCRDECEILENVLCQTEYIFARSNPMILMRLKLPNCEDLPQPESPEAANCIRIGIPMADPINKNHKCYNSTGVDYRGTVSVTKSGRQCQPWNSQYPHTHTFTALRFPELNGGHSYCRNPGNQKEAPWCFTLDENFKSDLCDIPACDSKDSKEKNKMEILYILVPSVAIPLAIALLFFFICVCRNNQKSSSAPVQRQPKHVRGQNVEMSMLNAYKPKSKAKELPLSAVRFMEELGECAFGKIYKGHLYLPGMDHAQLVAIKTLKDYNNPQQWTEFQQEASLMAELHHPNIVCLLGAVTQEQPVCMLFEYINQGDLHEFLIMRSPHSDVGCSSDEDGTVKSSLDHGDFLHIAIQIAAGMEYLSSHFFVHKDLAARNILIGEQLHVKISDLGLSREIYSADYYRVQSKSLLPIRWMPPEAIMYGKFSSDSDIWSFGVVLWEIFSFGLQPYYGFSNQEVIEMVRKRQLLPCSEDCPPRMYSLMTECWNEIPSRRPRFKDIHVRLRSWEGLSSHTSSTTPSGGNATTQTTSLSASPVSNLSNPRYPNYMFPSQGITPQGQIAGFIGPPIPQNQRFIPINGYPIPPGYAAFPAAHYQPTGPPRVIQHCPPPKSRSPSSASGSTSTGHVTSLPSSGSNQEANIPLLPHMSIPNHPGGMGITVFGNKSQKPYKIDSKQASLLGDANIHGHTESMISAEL
- test: FACS, MDA-MB-231 cells

[
  {
    "binder": "Hu005-43 (antibody, V domains shown, Humanized) VH: EVQLVESGGGLVKPGGSLRLSCAASGFTFNSYAMSWVRQTPGKGLEWVATISDAGSYTYYPDNEKGRFTISRDNAKNNLYLQMNSLRAEDTAIYYCVRGGYYYNLYAMDYWGQGTLVTVSS VL: DIVLTQSPDSLAVSLGERATINCKASQSVSFPGTSLMHWYQQKPGQQPKLLIYRASNLEAGVPDRFSGSGSRTDFTLTISSLQAEDVAVYYCQQSREYPWTFGGGTKVEIK",
    "binding result": "binds"
  },
  {
    "binder": "Hu005-44 (antibody, V domains shown, Humanized) VH: EVQLVESGGGLVKPGGSLRLSCAASGFTFNSYAMSWVRQTPGKGLEWVATISDAGSYTYYPDNEKGRFTISRDNAKNSLYLQMNSLRAEDTAIYYCVRGGYYYNLYAMDYWGQGTLVTVSS VL: DIVLTQSPDSLAVSLGERATINCKASQSVSFPGTSLMHWYQQKPGQQPKLLIYRASNLEAGVPDRFSGSGSRTDFTLTISSLQAEDVAVYYCQQSREYPWTFGGGTKVEIK",
    "binding result": "binds"
  },
  {
    "binder": "Hu005-44-MMAE (antibody, human IgG1, DAR about 4.12, V domains shown, vcMMAE on cysteines after TCEP reduction, positions not given, Antibody-drug conjugate of Hu005-44 (human IgG1, Kappa) with vcMMAE) VH: EVQLVESGGGLVKPGGSLRLSCAASGFTFNSYAMSWVRQTPGKGLEWVATISDAGSYTYYPDNEKGRFTISRDNAKNSLYLQMNSLRAEDTAIYYCVRGGYYYNLYAMDYWGQGTLVTVSS VL: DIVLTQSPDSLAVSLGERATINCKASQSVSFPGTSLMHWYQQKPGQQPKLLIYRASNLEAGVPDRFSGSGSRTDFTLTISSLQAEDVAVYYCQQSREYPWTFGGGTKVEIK",
    "binding result": "binds"
  }
]
